- ASSAY REMARKS: Acute toxicity, LD50, Wistar rat
- MEASUREMENT CONDITIONS: in vivo, sc, male, subcutaneous
Counter-ions that a name gives are not always drawn.
OBSERVABLE: LD50 (mg/kg)
Give the quantity in mg/kg, number only.

input: Fill in: LD50 of CCCC(=O)N1CCCN(c2nc(N)c3cc(OC)c(OC)cc3n2)CC1 [bunazosin hydrochloride] is ___
output: 430

* * *

- ASSAY REMARKS: Acute toxicity, LD50, ICR mouse
- MEASUREMENT CONDITIONS: in vivo, im, female, intramuscular
Structures can show the parent of a compound that is named as a salt.
OBSERVABLE: LD50
Hey, just the number and the unit after it is fine.

input: Give its LD50 value. Item: CCCC(=O)N1CCCN(c2nc(N)c3cc(OC)c(OC)cc3n2)CC1 [bunazosin hydrochloride]
output: 598 mg/kg

* * *

- ASSAY REMARKS: Acute toxicity, LD50, ICR mouse
- MEASUREMENT CONDITIONS: in vivo, po, female
Counter-ions that a name gives are not always drawn.
OBSERVABLE: LD50
State the value with its unit after it.

input: I'd like to know its LD50. The compound in question is CCCC(=O)N1CCCN(c2nc(N)c3cc(OC)c(OC)cc3n2)CC1 [bunazosin hydrochloride]
output: 1250 mg/kg

* * *

- ASSAY REMARKS: Acute toxicity, LD50, Wistar rat
- MEASUREMENT CONDITIONS: in vivo, iv, male
Counter-ions that a name gives are not always drawn.
OBSERVABLE: LD50

input: Using the record for CCCC(=O)N1CCCN(c2nc(N)c3cc(OC)c(OC)cc3n2)CC1 [bunazosin hydrochloride] , report its LD50.
output: 51 to 64 mg/kg

* * *

- ASSAY REMARKS: Acute toxicity, LD50, Wistar rat
- MEASUREMENT CONDITIONS: in vivo, iv, female
Structures can show the parent of a compound that is named as a salt.
OBSERVABLE: LD50 (mg/kg)
// return numeric value only (unit: mg/kg, not printed)

input: Dear colleague, I am looking for the recorded LD50 of the following compound: CCCC(=O)N1CCCN(c2nc(N)c3cc(OC)c(OC)cc3n2)CC1 [bunazosin hydrochloride]
output: 50

* * *

- ASSAY REMARKS: Acute toxicity, LD50, ICR mouse
- MEASUREMENT CONDITIONS: in vivo, po, male
Where a name gives a salt, the structure may show the parent alone.
OBSERVABLE: LD50 (mg/kg)
The response must be a number in mg/kg with no trailing unit.

input: Which LD50 value is on record for CCCC(=O)N1CCCN(c2nc(N)c3cc(OC)c(OC)cc3n2)CC1 [bunazosin hydrochloride] ?
output: 1200

* * *

- ASSAY REMARKS: Acute toxicity, LD50, Wistar rat
- MEASUREMENT CONDITIONS: in vivo, po, female
Where a name gives a salt, the structure may show the parent alone.
OBSERVABLE: LD50 (mg/kg)
Express your answer in mg/kg, writing the number without its unit.

input: GET /values?readout=LD50&item= CCCC(=O)N1CCCN(c2nc(N)c3cc(OC)c(OC)cc3n2)CC1 [bunazosin hydrochloride]
output: 1280

* * *

- ASSAY REMARKS: Acute toxicity, LD50, ICR mouse
- MEASUREMENT CONDITIONS: in vivo, iv, male
Structures can show the parent of a compound that is named as a salt.
OBSERVABLE: LD50 (mg/kg)
Field: numeric (mg/kg). Do not append units.

input: Query: LD50; subject: CCCC(=O)N1CCCN(c2nc(N)c3cc(OC)c(OC)cc3n2)CC1 [bunazosin hydrochloride]
output: 57
